Measured growth, listed per entry.
- Test system: HCT-116 colon
- EXPERIMENTAL_PROTOCOL: NCI-60 one-dose screen, 48 h (100 = growth as untreated, 0 = no growth, -100 = all killed)
- STATED_CONDITIONS: 10 µM unless noted
The panel holds about 83,000 compounds, 20% with a hit somewhere; the sample as a whole holds those more often.
Respond with the bare value in %.

# MOLECULE, UNIT_ABBREVIATION, growth
records = [
    ("O=Cc1c(O)c2ccccc2[nH]c1=O", "%", 89.4),
]

Request: I have this molecule here, "Cc1ccc2nc(-c3ccc(N=Cc4ccccc4O)cc3)sc2c1" , and I need its recorded growth.
Result: 79.2

Request: I have this molecule here, "Nc1nc(N)nc(N2CCCCC2)n1" , and I need its recorded growth.
Result: 106

Request: I have this molecule here, CC(CC(CCC(=O)O)(c1ccccc1)c1ccccc1)N(C)C (stereo not drawn) , and I need its recorded growth.
Result: 97.2

Request: I have this molecule here, CC1(C)OC2C(CO)OC(n3ccc(=O)[nH]c3=O)C2O1 (stereo not drawn) , and I need its recorded growth.
Result: 98.2

Request: I have this molecule here, "C=CCS(C)(=O)=O" , and I need its recorded growth.
Result: 94
